molecular target: UniProt Q15878; experiment: Human Cav2.3 channel calcium-influx assay; format: cell-based; details: HEK-293 T-Rex/Kir2.1/Cav2.3e-β4-α2δ1 cells, Fluo8 fluorescence, without pluronic acid; read-out: Cav2.3 (pIC50) (converted)
recorded metric: IC50 (µM)
Respond with the bare value in µM.

CC1CC2(CCC2)CN1S(=O)(=O)c1ccc2c(c1)CN(C(=O)C(F)(F)F)CC2 (single isomer, unassigned) [Example 19] : 1.78

# IC50 lookup, item Cc1ccc(S(=O)(=O)N2CC3(CCC3)CC2C)s1 (single isomer, unassigned) [Example 77] 13.8

# IC50 lookup, item CC1CC2(CCCC2)CN1S(=O)(=O)c1cccs1 (stereo not drawn) 1.7

# IC50 lookup, item COCc1ncsc1S(=O)(=O)N1CC2(CCC2)CC1C (stereo not drawn) 10

# IC50 lookup, item CC1CC2(CCC2)CN1S(=O)(=O)c1nccn1C (stereo not drawn) 30.2

# IC50 lookup, item CC1CC2(CCC2)CN1S(=O)(=O)c1cncc(C#N)c1 (stereo not drawn) 1.95

---

target: Cav2.3 (Homo sapiens, UniProt Q15878); experiment: Human Cav2.3 channel calcium-influx assay; assay type: cell-based; details: HEK-293 T-Rex/Kir2.1/Cav2.3e-β4-α2δ1 cells, Fluo8 fluorescence, without pluronic acid; read-out: Cav2.3 (pIC50) (converted)
Sequence (Q15878 1-747 limits assumed): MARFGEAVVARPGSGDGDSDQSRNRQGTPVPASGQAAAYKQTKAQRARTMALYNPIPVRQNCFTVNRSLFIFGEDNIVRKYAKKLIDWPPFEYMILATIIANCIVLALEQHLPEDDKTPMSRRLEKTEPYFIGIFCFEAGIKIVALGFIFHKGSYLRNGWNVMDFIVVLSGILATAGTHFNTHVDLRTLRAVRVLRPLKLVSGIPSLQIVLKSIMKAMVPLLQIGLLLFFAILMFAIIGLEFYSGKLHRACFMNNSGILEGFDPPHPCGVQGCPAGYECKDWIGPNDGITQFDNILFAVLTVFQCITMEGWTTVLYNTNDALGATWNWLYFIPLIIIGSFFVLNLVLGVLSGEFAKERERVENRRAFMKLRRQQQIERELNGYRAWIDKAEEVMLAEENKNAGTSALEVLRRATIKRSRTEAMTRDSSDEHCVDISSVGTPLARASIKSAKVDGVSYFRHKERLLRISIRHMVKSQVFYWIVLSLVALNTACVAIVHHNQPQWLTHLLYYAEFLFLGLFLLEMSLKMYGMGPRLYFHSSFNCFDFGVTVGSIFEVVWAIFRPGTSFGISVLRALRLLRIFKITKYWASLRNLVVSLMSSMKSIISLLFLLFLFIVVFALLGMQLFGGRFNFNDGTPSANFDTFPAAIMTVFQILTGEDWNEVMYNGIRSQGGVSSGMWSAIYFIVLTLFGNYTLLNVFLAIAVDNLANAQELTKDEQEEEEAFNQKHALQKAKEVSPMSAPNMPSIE
Sequence (Q15878 1126-2313 limits assumed): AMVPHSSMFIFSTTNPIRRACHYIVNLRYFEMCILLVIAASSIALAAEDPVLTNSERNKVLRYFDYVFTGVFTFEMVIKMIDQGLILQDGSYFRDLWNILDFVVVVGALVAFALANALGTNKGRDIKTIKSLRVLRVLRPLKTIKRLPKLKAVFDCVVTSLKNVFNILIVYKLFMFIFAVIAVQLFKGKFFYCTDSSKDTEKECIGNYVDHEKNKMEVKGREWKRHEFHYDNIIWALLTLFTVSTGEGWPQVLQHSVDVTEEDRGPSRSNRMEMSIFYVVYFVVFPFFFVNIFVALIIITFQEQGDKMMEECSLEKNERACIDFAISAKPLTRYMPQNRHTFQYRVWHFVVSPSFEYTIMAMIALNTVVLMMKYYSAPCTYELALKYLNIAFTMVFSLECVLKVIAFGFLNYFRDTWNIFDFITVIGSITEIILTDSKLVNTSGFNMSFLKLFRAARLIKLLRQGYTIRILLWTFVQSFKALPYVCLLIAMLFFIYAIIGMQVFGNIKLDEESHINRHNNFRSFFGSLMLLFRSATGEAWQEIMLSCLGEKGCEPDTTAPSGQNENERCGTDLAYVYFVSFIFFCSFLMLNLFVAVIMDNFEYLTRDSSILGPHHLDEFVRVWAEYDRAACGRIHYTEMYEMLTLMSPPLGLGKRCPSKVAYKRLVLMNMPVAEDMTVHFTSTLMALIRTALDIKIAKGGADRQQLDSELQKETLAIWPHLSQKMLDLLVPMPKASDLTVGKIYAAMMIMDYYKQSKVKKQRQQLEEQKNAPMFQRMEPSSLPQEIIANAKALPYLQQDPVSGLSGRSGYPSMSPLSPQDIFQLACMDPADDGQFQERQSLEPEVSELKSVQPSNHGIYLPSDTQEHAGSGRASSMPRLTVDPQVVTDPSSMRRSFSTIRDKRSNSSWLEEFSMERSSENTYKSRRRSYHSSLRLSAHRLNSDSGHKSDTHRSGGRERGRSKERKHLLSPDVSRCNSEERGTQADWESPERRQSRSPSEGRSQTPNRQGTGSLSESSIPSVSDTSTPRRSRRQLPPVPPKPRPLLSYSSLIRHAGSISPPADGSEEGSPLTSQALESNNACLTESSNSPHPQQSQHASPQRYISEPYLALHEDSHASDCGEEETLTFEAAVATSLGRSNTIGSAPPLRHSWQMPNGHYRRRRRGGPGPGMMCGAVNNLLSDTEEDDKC
For each record, check the reported IC50: if it is below 8 µM write y, else write n.

These solved cases illustrate the format of a correct answer.
CC1CC2(CCC2)CN1S(=O)(=O)c1ccncc1 (single isomer, unassigned) [Example 13] : y
CC1CC2(CCC2)CN1S(=O)(=O)c1cccc2c1CN(C(=O)C(F)(F)F)CC2 (centres unmarked) [Example 85] : n
CC1CC2(CCC2)CN1S(=O)(=O)c1cnccn1 (centres unmarked) [Example 39] : n

Determine if CC1CC2(CCC2)CN1S(=O)(=O)c1cccs1 (single isomer, unassigned) [Example 103] shows IC50 strictly lower than 8 µM. n

Determine if CCC1CC2(CCC2)CN1S(=O)(=O)c1ccnc(C)c1 (centres unmarked) [Example 92] shows IC50 strictly lower than 8 µM. y

Determine if CCC1CC2(CCC2)CN1S(=O)(=O)c1ccc2c(c1)S(=O)(=O)CC2 (single isomer, unassigned) [Example 62] shows IC50 strictly lower than 8 µM. y

Determine if CC(C)C(=O)N1CCc2ccc(S(=O)(=O)N3CC4(CCC4)CC3C)cc2C1 (centres unmarked) [Example 30] shows IC50 strictly lower than 8 µM. y

---

target: Cav2.3 (Homo sapiens, UniProt Q15878); test: Human Cav2.3 channel calcium-influx assay; type: cell-based; conditions: HEK-293 T-Rex/Kir2.1/Cav2.3e-β4-α2δ1 cells, Fluo8 fluorescence, without pluronic acid; read-out: Cav2.3 (pIC50) (converted)
Below, each of the compounds is paired with its reported IC50 value.
Respond with the bare value in µM.

Completed entries (count: 3):
CC1CC2(CCC2)CN1S(=O)(=O)c1ccc2c(c1)OCCO2 (single isomer, unassigned) [Example 7] : 2.19
CC1CC2(CCC2)CN1S(=O)(=O)c1ccc2c(c1)OCCO2 (single isomer, unassigned) [Example 6] : 7.24
Cc1ccc(S(=O)(=O)N2CC3(CCC3)CC2C)o1 (stereo not shown) [Example 53] : 4.9

What is its IC50 for Cav2.3 (Homo sapiens, UniProt Q15878)? Entry: CCC1CC2(CCCC2)CN1S(=O)(=O)c1cccs1 (stereo not shown) [Example 97] 2.51

What is its IC50 for Cav2.3 (Homo sapiens, UniProt Q15878)? Entry: CC1CC2(CCC2)CN1S(=O)(=O)c1cc2oc(=O)[nH]c2cc1Cl (single isomer, unassigned) [Example 57] 5.13

What is its IC50 for Cav2.3 (Homo sapiens, UniProt Q15878)? Entry: CC1CC2(CCC2)CN1S(=O)(=O)c1ccco1 (stereo not shown) [Example 36] 5.25

What is its IC50 for Cav2.3 (Homo sapiens, UniProt Q15878)? Entry: CC1CC2(CCC2)CN1S(=O)(=O)c1ccc(F)s1 (stereo not shown) 5.01

What is its IC50 for Cav2.3 (Homo sapiens, UniProt Q15878)? Entry: CC(=O)Nc1nnc(S(=O)(=O)N2CC3(CCC3)CC2C)s1 (stereo not shown) 8.32

---

molecular target: Cav2.3 (Homo sapiens, UniProt Q15878); test: Human Cav2.3 channel calcium-influx assay; assay type: cell-based; conditions: HEK-293 T-Rex/Kir2.1/Cav2.3e-β4-α2δ1 cells, Fluo8 fluorescence, without pluronic acid; read-out: Cav2.3 (pIC50) (converted)
For each record, check the reported IC50: if it is below 2 µM write Met, else write Not met.

CC1CC2(CCC2)CN1S(=O)(=O)c1ccc2ccccc2n1 (centres unmarked) : Not met

Determine if CCOc1ccc2nc(S(=O)(=O)N3CC4(CCC4)CC3C)sc2c1 (centres unmarked) shows IC50 strictly lower than 2 µM. Not met

Determine if CC1CC2(CCC2)CN1S(=O)(=O)c1cncnc1 (centres unmarked) shows IC50 strictly lower than 2 µM. Not met

Determine if CCC1CC2(CCC2)CN1S(=O)(=O)c1ccc2c(c1)CN(C(=O)C(F)(F)F)CC2 (centres unmarked) shows IC50 strictly lower than 2 µM. Met

Determine if CC(C)C(=O)N1CCc2ccc(S(=O)(=O)N3CC4(CCC4)CC3C)cc2C1 (single isomer, unassigned) [Example 32] shows IC50 strictly lower than 2 µM. Met
